Target: T1, HTRA4, P83105
T1 sequence (P83105 378-476, limits assumed, looked up): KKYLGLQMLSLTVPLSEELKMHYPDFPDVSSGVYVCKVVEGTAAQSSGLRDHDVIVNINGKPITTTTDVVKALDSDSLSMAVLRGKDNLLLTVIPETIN
Assay: holdup assay
Design: key: below the threshold = too weak to quantify, mostly under pKd 3.1 to 4
Conditions: plain residues with an end cap or a label only (N-terminal biotin on a linker: ado-ado)
quantityName: pKd
Please give the numeric answer without any surrounding text.

binder	pKd
KSRVAFFEEL [NF2, P35240;P35240-1]	4.4

Now for a further binder.
Sample SPDRDRESIV [SCN5A, Q14524] ; pKd observed: 3.9
